Please provide measured protein stability index for the entries that follow.
B1: CDC25B (parent)
chain: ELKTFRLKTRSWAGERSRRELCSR

- Variants of: B1
- run-description: protein stability index of a GFP-peptide fusion (GPS, HEK-293T) (PSI 1-6); higher = more stable;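 note: lentivirally expressed fusions sorted by FACS into six bins by GFP to DsRed ratio, PSI derived from sequencing read proportions per bin multiplied by bin number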
- run-parameters: c terminus: a fixed tail appended
Answer field: number only, no words.

protein stability index reading for S23F : 3.03

protein stability index reading for S23Y : 3.83

protein stability index reading for R18Q : 4.01

protein stability index reading for E1W : 2.6

protein stability index reading for L2V : 3.44

protein stability index reading for L21R : 3.37

protein stability index reading for R6I : 2.06

protein stability index reading for T4M : 2.96

protein stability index reading for L2D : 3.81

protein stability index reading for F5L : 3.65

protein stability index reading for R24T : 2.73

protein stability index reading for G14F : 3.15

protein stability index reading for A13C : 2.94

protein stability index reading for R19P : 2.98

protein stability index reading for R10D : 3.62

protein stability index reading for E20R : 2.78

protein stability index reading for C22T : 3.48

protein stability index reading for L2C : 4.24

protein stability index reading for L21Y : 3.61

protein stability index reading for R24Q : 3.23

protein stability index reading for R16S : 3.9

protein stability index reading for R24V : 2.7

protein stability index reading for R10S : 3.5

protein stability index reading for A13E : 3.23

protein stability index reading for R6G : 3.34

protein stability index reading for T4I : 2.26

protein stability index reading for R10A : 3.15

protein stability index reading for C22W : 2.89

protein stability index reading for F5T : 3.82

protein stability index reading for S23V : 2.25

protein stability index reading for R10P : 3.13

protein stability index reading for L7H : 3.6

protein stability index reading for S17N : 2.93

protein stability index reading for R24E : 3.39

protein stability index reading for R10Q : 3.1

protein stability index reading for C22K : 3.57

protein stability index reading for R19T : 2.57
